Data provenance is ChEMBL document CHEMBL5518219.

- ASSAY_PROTOCOL: Plasma protein binding in rat assessed as free fraction by equilibrium dialysis
- Assay type: ADME, cell-free
VALUE_TYPE: fraction unbound
Returns: the value as a bare number; no unit string appended.

Exam item: # fraction unbound lookup, item Cn1cc2cc(-c3cc4[nH]nc(C5CC5)c4n(-c4ccc(OC(F)F)cc4)c3=O)ccc2n1
Marked response: 0.006

====

- ASSAY_PROTOCOL: Plasma protein binding in dog assessed as free fraction by equilibrium dialysis
- Type: ADME, cell-free, Canis lupus familiaris
VALUE_TYPE: fraction unbound

Exam item: Using the record for Cn1cc2cc(-c3cc4[nH]nc(C5CC5)c4n(-c4ccc(OC(F)F)cc4)c3=O)ccc2n1 , report its fraction unbound.
Marked response: 0.12
